STUDY_SYSTEM: NADH:quinone oxidoreductase (NQO-P78G) (Pseudomonas aeruginosa, UniProt Q9I4V0, P78G)
Sequence (Q9I4V0 whole entry P78G): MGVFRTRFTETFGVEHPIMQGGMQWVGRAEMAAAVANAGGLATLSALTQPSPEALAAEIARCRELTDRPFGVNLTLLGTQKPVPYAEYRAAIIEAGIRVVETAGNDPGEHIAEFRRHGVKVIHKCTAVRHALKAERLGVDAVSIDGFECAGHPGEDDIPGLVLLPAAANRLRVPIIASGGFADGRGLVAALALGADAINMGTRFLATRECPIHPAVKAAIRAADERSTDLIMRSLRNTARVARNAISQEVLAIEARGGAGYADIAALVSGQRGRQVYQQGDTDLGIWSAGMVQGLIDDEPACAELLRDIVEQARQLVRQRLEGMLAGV
METHOD_DESCRIPTION: anaerobic stopped-flow reductive half-reaction (flavin reduction at […] nm), hyperbolic fit; steady-state kinetics
OBSERVED_PROPERTY: pKd
# pKd: negative log10 of molar concentration; output just the value

Query: Respond only with pKd recorded for `NC(=O)C1=CN([C@@H]2O[C@H](COP(=O)(O)OP(=O)(O)OC[C@H]3O[C@@H](n4cnc5c(N)ncnc54)[C@H](O)[C@@H]3O)[C@@H](O)[C@H]2O)C=CC1`
Reply: 3.35
